This section presents compounds with their documented pKi values.
- target.desc: B. cereus 5/B/6 metallo-β-lactamase (Bacillus cereus)
- Sequence (P14488 30-256): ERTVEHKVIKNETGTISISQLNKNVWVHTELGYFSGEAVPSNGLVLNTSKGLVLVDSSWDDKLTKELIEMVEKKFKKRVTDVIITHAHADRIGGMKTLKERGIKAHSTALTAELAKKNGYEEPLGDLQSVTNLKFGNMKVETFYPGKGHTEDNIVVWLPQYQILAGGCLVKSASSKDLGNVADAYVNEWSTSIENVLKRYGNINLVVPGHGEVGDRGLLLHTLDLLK
- Format: biochemical
- measurement.setup: intercept replot of Lineweaver-Burk data; read-out: Ki′ (dissociation constant for the inhibitor from the enzyme-substrate-inhibitor complex)
# reply with the number alone; pKi is -log10 of concentration in mol/L

{"compound": "O=C(O)CN(CCN(CC(=O)O)CC(=O)O)CC(=O)O [EDTA, reference compound]", "pKi": 5.54}

Here is the next item to consider.
Record OCCS [2-mercaptoethanol, reference compound] : what is its pKi with B. cereus 5/B/6 metallo-β-lactamase (Bacillus cereus)?
5.40

From: patent US7456274B2
